Task for the reader: assign each of the following compounds its reported pIC50.
Molecular target: UniProt P25774
Assay: Cathepsin enzyme inhibition assay (fluorogenic peptide substrate Z-Val-Val-Arg-AMC), Cathepsin S
Format: biochemical, human and mouse
Details: enzyme 1 nM, substrate 20 μM, pH 6.5; read-out: CatS IC50
Structures can show the parent of a compound that is named as a salt.
Answers are plain numbers, as −log10 of the molar value.

Previously resolved entries follow.
- COMPOUND: "N#CC1(NC(=O)[C@@H]2C[C@@H](S(=O)(=O)c3ccc(F)cc3Cl)CN2)CC1 [Example 144]"
  TARGET_ENTITY: "UniProt P25774"
  MEASURED_ATTRIBUTE: "pIC50"
  NUMERIC_VALUE: 8.01
- COMPOUND: "N#CC1(NC(=O)[C@@H]2C[C@@H](S(=O)(=O)c3ccc(-n4ccncc4=O)cc3C(F)(F)F)CN2)CC1 [Example 32, hydrochloride]"
  TARGET_ENTITY: "UniProt P25774"
  MEASURED_ATTRIBUTE: "pIC50"
  NUMERIC_VALUE: 8.30
- COMPOUND: "N#CC1(NC(=O)[C@@H]2C[C@@H](S(=O)(=O)c3ccc(OCC(F)(F)F)cc3Cl)CN2C(=O)C2(c3cccc(Br)c3)CC2)CC1 [Example 332]"
  TARGET_ENTITY: "UniProt P25774"
  MEASURED_ATTRIBUTE: "pIC50"
  NUMERIC_VALUE: 9.71

Below: the item to evaluate.
Query :: Consider the compound Cc1cc(N2C[C@H](S(=O)(=O)c3ccccc3C(F)(F)F)C[C@H]2C(=O)NC2(C#N)CC2)n(-c2cc[nH]c(=O)c2)n1 [Example 196] . State its measured pIC50.
Result :: 9.52

###

Molecular target: Cat L (UniProt P07711)
Experiment: Cathepsin enzyme inhibition assay (fluorogenic peptide substrate Z-Val-Val-Arg-AMC), Cathepsin L
Type: biochemical, human and mouse
Conditions: enzyme 1 nM, substrate 20 μM, pH 6.5; read-out: CatL IC50
Exercise: state measured log10(IC50) for each of the molecules provided.
// units: µM (pre-log); metric: IC50; scale: log10

Some solved cases for reference:
- MOLECULE: "N#CC1(NC(=O)[C@@H]2C[C@@H](S(=O)(=O)c3ccc(N4CCN5CCC[C@H]5C4)cc3Cl)CN2C(=O)C2(C(F)(F)F)CC2)CC1 [Example 299]"
  TARGET_ENTITY: "Cat L (UniProt P07711)"
  log10(IC50): 0.07
- MOLECULE: "N#CC1(NC(=O)[C@@H]2C[C@@H](S(=O)(=O)c3ccc(F)cc3F)CN2C(=O)C2(c3ccc(Cl)cc3)CC2)CC1 [Example 235]"
  TARGET_ENTITY: "Cat L (UniProt P07711)"
  log10(IC50): -0.26
- MOLECULE: "N#CC1(NC(=O)[C@@H]2C[C@@H](S(=O)(=O)c3ccccc3Cl)CN2CC(F)(F)C(F)(F)F)CC1 [Example 92]"
  TARGET_ENTITY: "Cat L (UniProt P07711)"
  log10(IC50): 1.79
- MOLECULE: "N#CC1(NC(=O)[C@@H]2C[C@@H](S(=O)(=O)c3ccc(OCC(F)(F)F)cc3Cl)CN2C(=O)C2(c3ccc(Cl)cc3)CC2)CC1 [Example 178]"
  TARGET_ENTITY: "Cat L (UniProt P07711)"
  log10(IC50): -1.44
- MOLECULE: "N#CCNC(=O)[C@@H]1C[C@@H](S(=O)(=O)c2ccccc2Cl)CN1C(c1ccccc1)C(F)(F)F (some centres unmarked) [Example 57]"
  TARGET_ENTITY: "Cat L (UniProt P07711)"
  log10(IC50): 1.23

Below is a list of molecules. For each, state its recorded log10(IC50).
1. CC(C)(C)C(=O)N1C[C@H](S(=O)(=O)c2ccccc2Cl)C[C@H]1C(=O)NC1(C#N)CC1 [Example 217]
2. N#CC1(NC(=O)[C@@H]2C[C@@H](S(=O)(=O)c3ccc(N4CCCCC4)cc3Cl)CN2C(=O)C2(C(F)(F)F)CC2)CC1 [Example 135]
3. COCCOc1ccc(S(=O)(=O)[C@@H]2C[C@@H](C(=O)NC3(C#N)CC3)N(C(=O)C3(c4ccc(Cl)cc4)CC3)C2)c(Cl)c1 [Example 342]
4. N#CC1(NC(=O)[C@@H]2C[C@@H](S(=O)(=O)c3ccccc3Cl)CN2C(=O)C2(c3cccc(Cl)c3)CC2)CC1 [Example 428]
5. Cc1cc(N2C[C@H](S(=O)(=O)c3ccccc3Cl)C[C@H]2C(=O)NC2(C#N)CC2)n(C2CCS(=O)(=O)CC2)n1 [Example 479]
6. CC(=O)N1C[C@H](S(=O)(=O)c2ccc(OC(C)C(F)(F)F)cc2Cl)C[C@H]1C(=O)NC1(C#N)CC1 (some centres unmarked) [Example 132]
7. N#CC1(NC(=O)C2CC(S(=O)(=O)c3ccccc3C(F)(F)F)CN2c2cccc3ccccc23)CC1 (centres unmarked) [Example 345]
8. N#CC1(NC(=O)C2C[C@@H](S(=O)(=O)c3ccc(OCC(F)(F)F)cc3Cl)CN2C(=O)C2(c3ccc(Cl)nc3)CC2)CC1 (stereo in doubt) [Example 377]

Result ::
1: 1.15; 2: 0.50; 3: -1.31; 4: -0.47; 5: 0.49; 6: 1.54; 7: 1.85; 8: -0.53

###

Molecular target: UniProt P25774
Assay: Cathepsin enzyme inhibition assay (fluorogenic peptide substrate Z-Val-Val-Arg-AMC), Cathepsin S
Format: biochemical, human and mouse
Details: enzyme 1 nM, substrate 20 μM, pH 6.5; read-out: CatS IC50
MEASURED_ATTRIBUTE: pIC50
Give bare numbers, as −log10 of the molar value.

- COMPOUND: "N#CC1(NC(=O)[C@@H]2C[C@@H](S(=O)(=O)c3ccccc3C(F)(F)F)CN2C(=O)C2(C(F)(F)F)CC2)CC1 [Example 205]"
  pIC50: 9.70
- COMPOUND: "N#CC1(NC(=O)[C@@H]2C[C@@H](S(=O)(=O)c3ccc(-n4cccn4)cc3Cl)CN2C=O)CC1 [Example 148]"
  pIC50: 7.80

Query :: Fill in: pIC50 on UniProt P25774, entry N#CC1(NC(=O)[C@@H]2C[C@@H](S(=O)(=O)c3ccccc3Cl)CN2C2CCCCC2)CC1 [Example 85]
Result :: 8.03

###

Molecular target: UniProt:P07711
Assay: Cathepsin enzyme inhibition assay (fluorogenic peptide substrate Z-Val-Val-Arg-AMC), Cathepsin L
Format: biochemical, human and mouse
Settings: enzyme 1 nM, substrate 20 μM, pH 6.5; read-out: CatL IC50
MEASURED_ATTRIBUTE: pIC50
Numbers only, as −log10 of the molar value.

Here's what some known entries look like.
- COMPOUND: "N#CC1(NC(=O)[C@@H]2C[C@@H](S(=O)(=O)c3ccc(Cl)cc3Cl)CN2C(=O)C2(C(F)(F)F)CC2)CC1 [Example 168]"
  NUMERIC_VALUE: 5.06
- COMPOUND: "CC(C)(C)C(=O)N1C[C@H](S(=O)(=O)c2ccc(OCC(F)(F)F)cc2Cl)C[C@H]1C(=O)NC1(C#N)CC1 [Example 176]"
  NUMERIC_VALUE: 4.45

Let us examine a further case.
Query :: Given C[C@H](Oc1ccc(S(=O)(=O)[C@@H]2C[C@@H](C(=O)NC3(C#N)CC3)N(C(=O)C3(c4ccc(Cl)nc4)CC3)C2)c(Cl)c1)C(F)(F)F [Example 381] , respond with its pIC50.
Result :: 6.99

###

Biological target: Cat L (UniProt P07711)
Assay: Cathepsin enzyme inhibition assay (fluorogenic peptide substrate Z-Val-Val-Arg-AMC), Cathepsin L
Type: biochemical, human and mouse
Conditions: enzyme 1 nM, substrate 20 μM, pH 6.5; read-out: CatL IC50
pIC50: −log10 of the molar value.
MEASURED_ATTRIBUTE: pIC50

Please review the following examples before continuing.
- COMPOUND: "CC(=O)Nc1cccc(-n2nc(C)cc2N2C[C@H](S(=O)(=O)c3ccccc3C(F)(F)F)C[C@@H]2C(=O)NC2(C#N)CC2)c1 [Example 357]"
  pIC50: "≤ 4.60"
- COMPOUND: "CC(C)(C)OC(=O)N1CCC(N2CC(S(=O)(=O)c3ccccc3C(F)(F)F)CC2C(=O)NC2(C#N)CC2)CC1 (stereo not shown) [Example 364]"
  pIC50: "≤ 4.60"
- COMPOUND: "Cc1ccc(=O)n(-c2ccc(S(=O)(=O)[C@@H]3C[C@@H](C(=O)NC4(C#N)CC4)N(C(=O)OC(C)(C)C)C3)c(C(F)(F)F)c2)n1 [Example 10]"
  pIC50: "≤ 4.60"
- COMPOUND: "Cc1cc(N2C[C@H](S(=O)(=O)c3ccc(OCC(F)(F)F)cc3C(F)(F)F)C[C@@H]2C(=O)NC2(C#N)CC2)n(C2CCC2)n1 [Example 392]"
  pIC50: "≤ 4.60"
- COMPOUND: "Cc1cc(N2C[C@H](S(=O)(=O)c3ccccc3C(F)(F)F)C[C@H]2C(=O)NC2(C#N)CC2)n(-c2ccn(C(=O)OCC(C)C)c(=O)c2)n1 [Example 231]"
  pIC50: "< 4.60"

I need pIC50 for every entry listed below, if you could help.
1. CN1C[C@H](S(=O)(=O)c2ccccc2Cl)C[C@H]1C(=O)NC1(C#N)CC1 [Example 93]
2. CC(C)(C)OC(=O)N1C[C@H](S(=O)(=O)c2ccc(-n3ccnc3)cc2)C[C@H]1C(=O)NC1(C#N)CC1 [Example 3]

Result ::
1: ≤ 4.60; 2: ≤ 4.60
